Data origin, for the record: ChEMBL document CHEMBL3879904

Measurement Notes: Toxicity in Sprague-Dawley rat assessed as dose required to produce 10% increase in lung to terminal body weight ratio administered orally via gavage for 5 to 14 days measured 24 hrs post last dose
Condition: in vivo, po
Test Readout: Activity (mg/kg)
Kindly provide the numeric value in mg/kg only, without the unit symbol.

Example results:
Line Notation	Activity / mg/kg
CC(C)Oc1ccc(-c2nc(-c3cccc4c3CC[C@H]4N)no2)cc1C#N.Cl	0.2
CC(C)Oc1ccc(-c2nc(-c3cccc4c3CC[C@@H]4N)no2)cc1C#N	2

Okay, now this compound:
Activity recorded for this compound, `CC(C)Oc1ccc(-c2nc(-c3cccc4c3CC[C@@H]4NC(=O)N3CC(O)C3)no2)cc1C#N` , is 11.3
